assay: In vivo toxicological study in rats: haematology; parameters: species or system rats of the Wistar strain; conditions: male, 300 mg/kg oral daily 7 d
Listing of recorded MCHC by entry.
Lab book: enter the figure in g/dL, no units written.

Request the reported MCHC associated with COc1ccccc1NC(=O)N1CCc2c(sc(NC(=O)c3cccc4ccccc34)c2C#N)C1
33.8

Next record, please: N#Cc1c(NC(=O)c2cccc3ccccc23)sc2c1CCN(C(=O)Nc1ccccc1OC(F)(F)F)C2
35.1

Also, COc1ccc(C(=O)Nc2sc3c(c2C#N)CCCCC3)cc1OC please.
34

Please look at the following compound next.
Field request: MCHC | item: N#Cc1c(NC(=O)c2cccc3ccccc23)sc2c1CCN(CC(=O)Nc1cccc(Br)c1)C2
35.4
